Test system: CCRF-CEM
ASSAY NAME: Cytotoxicity against human CEM cells
Type: cell-based
CONDITIONS USED: ccrf-cem

COMPOUND	CC50
C[C@@]1(O)[C@H](O)[C@@H](CO)O[C@H]1n1cnc2c(=O)n3cc(-c4ccsc4)[nH]c3nc21	> 100 µM
[N-]=[N+]=Nc1ccc(-c2cn3c(=O)c4ncn([C@H]5CO[C@@H](CO)O5)c4nc3[nH]2)cc1	> 100 µM
COc1ccc(-c2cn3c(=O)c4ncn([C@@H]5O[C@H](CO)[C@@H](O)[C@@]5(C)O)c4nc3[nH]2)cc1	> 100 µM
Cc1ccc(-c2cn3c(=O)c4ncn([C@H]5CO[C@@H](CO)O5)c4nc3[nH]2)cc1	> 100 µM
COc1ccc(-c2cn3c(=O)c4ncn([C@H]5CO[C@@H](CO)O5)c4nc3[nH]2)cc1	> 100 µM
CN(C)c1ccc(-c2cn3c(=O)c4ncn([C@H]5C=C[C@@H](CO)C5)c4nc3[nH]2)cc1	> 100 µM
O=c1c2ncn([C@H]3CO[C@@H](CO)O3)c2nc2[nH]c(-c3ccc(F)cc3)cn12	> 100 µM
Cc1ccc(-c2cn3c(=O)c4ncn([C@H]5C=C[C@@H](CO)C5)c4nc3[nH]2)cc1	> 100 µM
COc1ccccc1-c1cn2c(=O)c3ncn([C@H]4CO[C@@H](CO)O4)c3nc2[nH]1	> 100 µM
O=c1c2ncn([C@H]3CO[C@@H](CO)O3)c2nc2[nH]c(-c3cccs3)cn12	> 100 µM
O=c1c2ncn([C@H]3C=C[C@@H](CO)C3)c2nc2[nH]c(-c3ccsc3)cn12	> 100 µM
Nc1nc2c(ncn2[C@H]2C=C[C@@H](CO)C2)c(=O)[nH]1 [CARBOVIR]	> 100 µM
O=c1c2ncn([C@H]3CO[C@@H](CO)O3)c2nc2[nH]c(-c3ccc(F)cc3F)cn12	> 100 µM
CCc1cn2c(=O)c3ncn([C@H]4CO[C@@H](CO)O4)c3nc2[nH]1	> 100 µM
CCN(CC)c1ccc(-c2cn3c(=O)c4ncn([C@H]5C[C@H](N=[N+]=[N-])[C@@H](CO)O5)c4nc3[nH]2)cc1	14.1 µM
CN(C)c1ccc(-c2cn3c(=O)c4ncn([C@H]5CO[C@@H](CO)O5)c4nc3[nH]2)cc1	> 100 µM
O=c1c2ncn([C@H]3C=C[C@@H](CO)C3)c2nc2[nH]c(-c3cccs3)cn12	> 100 µM
N#Cc1ccc(-c2cn3c(=O)c4ncn([C@H]5CO[C@@H](CO)O5)c4nc3[nH]2)cc1	> 100 µM
CCN(CC)c1ccc(-c2cn3c(=O)c4ncn([C@H]5C=C[C@@H](CO)C5)c4nc3[nH]2)cc1	> 100 µM
C[C@@]1(O)[C@H](O)[C@@H](CO)O[C@H]1n1cnc2c(=O)n3cc(-c4cccs4)[nH]c3nc21	> 100 µM
CN(C)c1ccc(-c2cn3c(=O)c4ncn([C@@H]5O[C@H](CO)[C@@H](O)[C@@]5(C)O)c4nc3[nH]2)cc1	> 100 µM
CN(C)c1ccc(-c2cn3c(=O)c4ncn([C@H]5C[C@H](N=[N+]=[N-])[C@@H](CO)O5)c4nc3[nH]2)cc1	74.6 µM
COc1ccc(-c2cn3c(=O)c4ncn([C@H]5C=C[C@@H](CO)C5)c4nc3[nH]2)cc1	> 100 µM
CCN(CC)c1ccc(-c2cn3c(=O)c4ncn([C@H]5CO[C@@H](CO)O5)c4nc3[nH]2)cc1	80.8 µM
O=c1c2ncn([C@H]3C=C[C@@H](CO)C3)c2nc2[nH]c(-c3ccc(Br)cc3)cn12	> 100 µM
O=c1c2ncn([C@H]3CO[C@@H](CO)O3)c2nc2[nH]c(-c3ccccc3)cn12	> 100 µM
COc1ccc(-c2cn3c(=O)c4ncn([C@H]5C[C@H](N=[N+]=[N-])[C@@H](CO)O5)c4nc3[nH]2)cc1	13.5 µM
Nc1nc2c(ncn2[C@H]2CO[C@@H](CO)O2)c(=O)[nH]1	> 100 µM
O=c1c2ncn([C@H]3CO[C@@H](CO)O3)c2nc2[nH]c(-c3ccsc3)cn12	> 100 µM
O=c1c2ncn([C@H]3CO[C@@H](CO)O3)c2nc2[nH]c(-c3ccc(Cl)cc3)cn12	> 100 µM
COc1cccc(-c2cn3c(=O)c4ncn([C@H]5CO[C@@H](CO)O5)c4nc3[nH]2)c1	> 100 µM
[N-]=[N+]=N[C@H]1C[C@H](n2cnc3c(=O)n4cc(-c5ccccc5)[nH]c4nc32)O[C@@H]1CO	21.8 µM

* * *

ASSAY NAME: Cytotoxicity against human CEM cells
Type: cell-based, CCRF-CEM
CONDITIONS USED: CEM (CCRF-CEM) cells

QUERY SMILES	CC50
CCc1cn2c(=O)c3ncn([C@@H]4O[C@H](CO)[C@@H](O)[C@@]4(C)O)c3nc2[nH]1	> 100 µM
C[C@@]1(O)[C@H](O)[C@@H](CO)O[C@H]1n1cnc2c(=O)[nH]c(N)nc21	> 100 µM

* * *

System: PBMC
ASSAY NAME: Cytotoxicity against human PBMC cells
Format: cell-based
CONDITIONS USED: pbmc
METRIC NAME: CC50

QUERY SMILES	OBSERVED
COc1ccccc1-c1cn2c(=O)c3ncn([C@H]4CO[C@@H](CO)O4)c3nc2[nH]1	> 100 µM
CCN(CC)c1ccc(-c2cn3c(=O)c4ncn([C@H]5C[C@H](N=[N+]=[N-])[C@@H](CO)O5)c4nc3[nH]2)cc1	> 100 µM
CN(C)c1ccc(-c2cn3c(=O)c4ncn([C@H]5C=C[C@@H](CO)C5)c4nc3[nH]2)cc1	24 µM
COc1ccc(-c2cn3c(=O)c4ncn([C@H]5C[C@H](N=[N+]=[N-])[C@@H](CO)O5)c4nc3[nH]2)cc1	56.7 µM
C[C@@]1(O)[C@H](O)[C@@H](CO)O[C@H]1n1cnc2c(=O)n3cc(-c4cccs4)[nH]c3nc21	> 100 µM
Nc1nc2c(ncn2[C@H]2CO[C@@H](CO)O2)c(=O)[nH]1	> 100 µM
[N-]=[N+]=Nc1ccc(-c2cn3c(=O)c4ncn([C@H]5CO[C@@H](CO)O5)c4nc3[nH]2)cc1	> 100 µM
CCc1cn2c(=O)c3ncn([C@H]4CO[C@@H](CO)O4)c3nc2[nH]1	> 100 µM

* * *

Tested on: Human immunodeficiency virus
ASSAY NAME: Antiviral activity against HIV in human PBM cells
CONDITIONS USED: Human immunodeficiency virus 1, PBMC
pEC50: −log10 of the molar value.
Output true for pEC50 not less than 5; output false otherwise.

COMPOUND	SYSTEM TESTED	CLASS ASSIGNMENT
Cc1ccc(-c2cn3c(=O)c4ncn([C@H]5C=C[C@@H](CO)C5)c4nc3[nH]2)cc1	Human immunodeficiency virus	true
CCc1cn2c(=O)c3ncn([C@H]4CO[C@@H](CO)O4)c3nc2[nH]1	Human immunodeficiency virus	false
Nc1nc2c(ncn2[C@H]2CO[C@@H](CO)O2)c(=O)[nH]1	Human immunodeficiency virus	true
C[C@@]1(O)[C@H](O)[C@@H](CO)O[C@H]1n1cnc2c(=O)n3cc(-c4cccs4)[nH]c3nc21	Human immunodeficiency virus	false
COc1cccc(-c2cn3c(=O)c4ncn([C@H]5CO[C@@H](CO)O5)c4nc3[nH]2)c1	Human immunodeficiency virus	false
COc1ccc(-c2cn3c(=O)c4ncn([C@H]5C[C@H](N=[N+]=[N-])[C@@H](CO)O5)c4nc3[nH]2)cc1	Human immunodeficiency virus	true
Nc1nc2c(ncn2[C@H]2C=C[C@@H](CO)C2)c(=O)[nH]1 [CARBOVIR]	Human immunodeficiency virus	true
CCN(CC)c1ccc(-c2cn3c(=O)c4ncn([C@H]5CO[C@@H](CO)O5)c4nc3[nH]2)cc1	Human immunodeficiency virus	true
O=c1c2ncn([C@H]3CO[C@@H](CO)O3)c2nc2[nH]c(-c3ccccc3)cn12	Human immunodeficiency virus	true
Cc1ccc(-c2cn3c(=O)c4ncn([C@H]5CO[C@@H](CO)O5)c4nc3[nH]2)cc1	Human immunodeficiency virus	true
O=c1c2ncn([C@H]3CO[C@@H](CO)O3)c2nc2[nH]c(-c3ccc(F)cc3F)cn12	Human immunodeficiency virus	false
CN(C)c1ccc(-c2cn3c(=O)c4ncn([C@H]5C[C@H](N=[N+]=[N-])[C@@H](CO)O5)c4nc3[nH]2)cc1	Human immunodeficiency virus	true
COc1ccc(-c2cn3c(=O)c4ncn([C@H]5CO[C@@H](CO)O5)c4nc3[nH]2)cc1	Human immunodeficiency virus	true
O=c1c2ncn([C@H]3CO[C@@H](CO)O3)c2nc2[nH]c(-c3cccs3)cn12	Human immunodeficiency virus	true
CCc1cn2c(=O)c3ncn([C@@H]4O[C@H](CO)[C@@H](O)[C@@]4(C)O)c3nc2[nH]1	Human immunodeficiency virus	false
